- measured.on: MARV GPddmuc (Marburg virus (MARV), UniProt P35253 19-648)
- assay.notes: native ELISA

binder	binding result
FVM42 (antibody, V domains shown) VH: EVQLVESGAEVKRPGESLTISCKTSGYSFTDSWVAWVRQMPGKGLEWMGSIYPGDSETKYNPSFQGHVTISADKSVTTTYLKWSSLKASDTATYYCVKGSETWGQGVLVTVSS VL: QTVVTQPASLSASPGASASLTCTFSGGINVAGYNILWYQQKAGSPPRYLLRYKSDSTKDQGSGVPSRFSGSKDASANTGILRISGLQSEDEADYYCAIGHSSGWIFGGGTRLTVL	no binding
FVM32 (antibody, V domains shown) VH: QVQLVQSGAEVKRPGESLRISCKTSGYSFTDSWVAWVRQMPGKGLEWLGSIYPGDSDTRYSPSFQGQVTISADKSITTAYLKWSSLKASDTATYYCVKGSETWGQGVLVTVSS VL: QPVLTQPASLSASPGASASLTCTFNGGITVPGYDILWYQQKSGSPPRYLLRYKSDSTKDQGSGVPSRFSGSKDASTNTGILRISGLQSEDEADYYCAIGHSSGWIFGGGTRLTVL	no binding
FVM21 (antibody, V domains shown) VH: EVQLVESGAEVKRPGESLTISCKTSGYSFTDSWVAWVRQMPGKGLEWLGSIYPGDSETKYNPSFQGHVTISADKSISTTYLQWSSLRASDTATYYCVKGADDWGPGLLVTVSS VL: SSELTQPASLSASPGASASLTCTFSGGINVAGYNILWYQQKAGSPPRYLLRYKSDSDKGQGSGVPSRFSGSKDASANTGILRISGLQSEDEADYYCAIGHSSGWIFGGGTRLTVL	no binding
